biological target: Neuropilin-1 (Homo sapiens); experiment: Inhibition of biotinylated human VEGF-A165 binding to recombinant human NRP1 receptor after 2 hrs by chemiluminescence analysis relative to control
Sequence (O14786 whole entry): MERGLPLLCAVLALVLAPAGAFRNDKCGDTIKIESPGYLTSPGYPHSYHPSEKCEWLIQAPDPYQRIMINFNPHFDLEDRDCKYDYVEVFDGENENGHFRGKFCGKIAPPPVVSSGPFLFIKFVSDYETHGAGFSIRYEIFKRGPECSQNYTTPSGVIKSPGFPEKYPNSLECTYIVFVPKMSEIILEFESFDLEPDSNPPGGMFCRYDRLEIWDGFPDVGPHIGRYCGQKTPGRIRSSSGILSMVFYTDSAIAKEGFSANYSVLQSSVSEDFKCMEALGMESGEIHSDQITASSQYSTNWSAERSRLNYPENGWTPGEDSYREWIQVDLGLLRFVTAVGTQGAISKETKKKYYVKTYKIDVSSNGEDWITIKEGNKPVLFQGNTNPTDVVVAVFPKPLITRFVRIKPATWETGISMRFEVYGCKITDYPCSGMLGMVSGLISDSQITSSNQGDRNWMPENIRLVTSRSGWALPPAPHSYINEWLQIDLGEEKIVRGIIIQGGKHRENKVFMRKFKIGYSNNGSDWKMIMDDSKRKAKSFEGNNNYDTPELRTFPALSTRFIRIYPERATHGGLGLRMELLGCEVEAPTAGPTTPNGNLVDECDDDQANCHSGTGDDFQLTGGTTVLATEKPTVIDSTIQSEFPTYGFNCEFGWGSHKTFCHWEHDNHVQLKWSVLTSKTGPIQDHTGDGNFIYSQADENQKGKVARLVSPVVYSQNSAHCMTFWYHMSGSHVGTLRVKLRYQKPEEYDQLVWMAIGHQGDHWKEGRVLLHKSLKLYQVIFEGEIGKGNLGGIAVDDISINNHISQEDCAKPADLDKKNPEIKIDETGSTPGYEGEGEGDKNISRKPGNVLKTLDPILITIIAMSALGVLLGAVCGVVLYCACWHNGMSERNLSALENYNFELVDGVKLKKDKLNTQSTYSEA
Numbered stars: 1 amine (or outer) side, 2 acyl side, 3 side chain; on linkers, the order of the positions; unused ones are H or OH. Side chains are listed from the residue outwards. Peptide text beside a SMILES is read from it. * marks the point of attachment. X1 = N=C(N)NCCC[C@H](N)CN*; CO = O=C([*:1])[*:2]
Entries annotated with measured IC50
Note: a bare number is incomplete; add the unit.

Look over these answered cases.
INSERT INTO results (compound, value_observed) VALUES
  ('N=C(N)NCCC[C@H](N)CNC(=O)NCCCC[C@H](N)C(=O)N1CCC[C@H]1C(=O)N1CCC[C@H]1C(=O)N[C@@H](CCCNC(=N)N)C(=O)O (H-K([CO-X1])PPR-OH)', '7.7 µM'),
  ('N=C(N)NCCC[C@H](N)CNC(=O)NCCCC[C@H](N)C(=O)N[C@H](CCN)C(=O)N1C2CCCCC2C[C@H]1C(=O)N[C@@H](CCCNC(=N)N)C(=O)O (stereo partly drawn)', '5.4 µM');

Note: attention shifts to another entry.
IC50 for N=C(N)NCCC[C@H](N)CNC(=O)NCCCC[C@H](N)C(=O)N[C@H](CCN)C(=O)N1CC[C@H]1C(=O)N[C@@H](CCCNC(=N)N)C(=O)O ?
26 µM
